Reference source: the supplement of paper PMC10126150

System: ATP;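 also: ATP exposure 15 min at 22 °C before imaging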
experiment.notes: switch fluorescence ratio, 500 uM ATP over buffer (Cy3 cluster intensity, sum of 5 cycles each) (fold (ratio)); higher = stronger signal-on switching upon ATP binding; sequences stand for … in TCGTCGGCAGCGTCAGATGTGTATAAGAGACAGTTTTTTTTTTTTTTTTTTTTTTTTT…TC
test.context: aptamer strand: ATP DNA aptamer (quencher-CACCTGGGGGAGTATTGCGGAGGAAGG + anchor), 100 nM annealed; ATP concentration: 500 uM
assay.readout: switch fluorescence ratio
Numbers only.

>>> experimental_result("ATACAAATTT")
0.995
>>> experimental_result("AGTCGAGCGT")
0.998
>>> experimental_result("TATATTTTTT")
1.02

Give measured switch fluorescence ratio for every item shown.
1. CATTGGTCAT
2. CAGATGTCAA
3. CTAACTCGC
4. CGGGGTATTT
5. GAAGGTGTTG
6. TTGATTTAAT
7. TTGTCAGCGT

0.995
0.993
1.04
1
1.04
1
0.997

Give measured switch fluorescence ratio for every item shown.
1. CGGAGGCGGT
2. TCGGTTAGAT
3. AATAACCAGT
4. AAGATAGGGA
5. GTGTCAGCGG
6. ACGGAGGGAT
7. TGAATTTTAT
8. TTGGTTACAT

1: 1.02; 2: 0.981; 3: 1.02; 4: 0.979; 5: 0.976; 6: 1.32; 7: 0.989; 8: 0.994

Give measured switch fluorescence ratio for every item shown.
1. TGACCAGGCA
2. CATATCATAC
3. AAGGAATAGC

[1.05, 1.08, 1.04]
